Data credit: ChEMBL document CHEMBL4513216

Assay: Toxicity liver stage against HepG2, at 10uM
Format: cell-based
Set-up: test concentration 10 uM, cell line HepG2-A16-CD81EGFP
Conditions: human, HepG2-A16-CD81EGFP cells; read-out: INHIBITION
ENDPOINT: cytotoxicity at 10 µM (%)
Answers are plain numbers, in %.

For each of the items listed, what is its cytotoxicity at 10 µM?
1. CCC(C)N(Cc1sccc1C)C(=O)c1cc(N)ccn1 (stereo not given)
2. CCCc1nc(N2CCCC(C)C2)c2c(n1)c(C)nn2CC (stereo not given)
3. CC(CO)NC(=O)c1ccc(NCc2ccc(F)c(F)c2)cc1 (stereo not given)
4. Cc1nc(CN2CCCC2c2noc(C3CC3)n2)oc1C (stereo not given)
5. COc1cc(-c2ccc(F)c3c2OC(CN)C3)cc(OC)c1OC (stereo not given)

Return:
[9.8, 15.6, -5.89, -8.13, 1.35]
